- System: C. albicans CaCi-17 growth, Alamar Blue fluorescence, 48 h
- assay.protocol: fluconazole-resistant Candida isolate growth inhibitors – retest at dose, dry powder, set 2, confirmation (AID 623897)
Calls of active or inactive are those of the source.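 Rule for the calls: active = fitted AC50 at or below twice the top valid tested dose for that sample, with falling signal; inconclusive = flat curve with 30 to 70% inhibition, or poor fit; inactive = the rest.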
Write down the outcome that applies. Available outcomes: active, inactive

Use these answered entries as a reference point.
{"columns": ["mol", "label"],
 "data": [
  ["Cc1ccc(N2C(=S)N(C)C(=O)C23CCCCC3)cc1", "inactive"],
  ["CCOC(=O)N1C(=O)C2(CCCCC2)N(c2ccccc2)C1=S", "active"]
]}

Q: Which outcome did this test record for the compound CCOC(=O)N1C(=O)C2(CCCCC2)N(c2ccc(F)cc2)C1=S ?
Ans: active

Origin of measurements: PubChem BioAssay AID623897
